Measured Kd values are reported for all entries that follow.
Target: RSV postfusion F (postF, F deltaFP) (Respiratory syncytial virus)
Assay: BLI, IgG on sensor, 100 nM antigen

Binder: ADI-41342 (antibody, V domains shown) VH: QVQLVQSGAEVKKPGSSVKVSCKASGGTLTSYGVSWVRQAPGQGLEWMGGIIPIFGTVDYAQKFQGRVTITADEPTSTAYMELSSLTSDDTAVYYCARDPWVSGPVEFYYYFDVWGRGTLVTVSS VL: DIVLTESPATLSLSPGERATLSCRASQSINNRYLAWYQQKPGQAPRLLIFGASSRATGIPDRFSGSGSGTDFTLTISRLEPEDFAVYYCQQYGSTPPTFGQGTKVEIK
Kd, nM: 0.591

Binder: ADI-41281 (antibody, V domains shown) VH: QVQLVQSGAEVKKPGASVKVSCKASGYSFTNHGIHWVRQAPGQRLEWMGWINVANGFTAYSQNLQGRVTFTRDTSASTAYLELTSLRSEDTAVYHCARDESYCSAGYCYLYFDYWGQGTTVTVSS VL: DIQVTQSPSSLSASVGDRVTITCRASQNIITYVNWYQQKPGKAPELLIFGASSVQSGVPSRFSGSGSGTDFTLTISSLRPDDFATYYCQQSYSNPRTFGGGTKVEIK
Kd, nM: 1.58
